- System: U87 cells
- protocol description: U87 cell assay (antiproliferative/cytotoxicity)
- Format: cell-based
- test settings: U-87MG human glioblastoma cells
measurement type: pEC50
Units for pEC50: none; it is -log10 of a concentration expressed in mol/L.

Would you please look over these solved cases?
>>> print(df.to_string())
                                     smiles  system_tested  measurement_type  experimental_result
0  CCc1ncnc(N2CCOCC2)c1C#Cc1cnc(OC)c(NS(=O)(=O)c2ccc(F)cc2F)c1      U87 cells             pEC50                 6.98
1  CCc1ncnc(N2CCOCC2)c1C#Cc1cnc(OC)c(NS(=O)(=O)c2ccccc2)c1      U87 cells             pEC50                 7.01

Now consider the entry below.
Documented pEC50 of Cc1ncc(C#Cc2c(C)ncnc2N2CCOCC2)cc1NS(=O)(=O)c1ccccc1C(F)(F)F : 6.97

----------
- system tested: PI3Kalpha (Homo sapiens (Human), UniProt P42336)
- Sequence (P42336 whole entry): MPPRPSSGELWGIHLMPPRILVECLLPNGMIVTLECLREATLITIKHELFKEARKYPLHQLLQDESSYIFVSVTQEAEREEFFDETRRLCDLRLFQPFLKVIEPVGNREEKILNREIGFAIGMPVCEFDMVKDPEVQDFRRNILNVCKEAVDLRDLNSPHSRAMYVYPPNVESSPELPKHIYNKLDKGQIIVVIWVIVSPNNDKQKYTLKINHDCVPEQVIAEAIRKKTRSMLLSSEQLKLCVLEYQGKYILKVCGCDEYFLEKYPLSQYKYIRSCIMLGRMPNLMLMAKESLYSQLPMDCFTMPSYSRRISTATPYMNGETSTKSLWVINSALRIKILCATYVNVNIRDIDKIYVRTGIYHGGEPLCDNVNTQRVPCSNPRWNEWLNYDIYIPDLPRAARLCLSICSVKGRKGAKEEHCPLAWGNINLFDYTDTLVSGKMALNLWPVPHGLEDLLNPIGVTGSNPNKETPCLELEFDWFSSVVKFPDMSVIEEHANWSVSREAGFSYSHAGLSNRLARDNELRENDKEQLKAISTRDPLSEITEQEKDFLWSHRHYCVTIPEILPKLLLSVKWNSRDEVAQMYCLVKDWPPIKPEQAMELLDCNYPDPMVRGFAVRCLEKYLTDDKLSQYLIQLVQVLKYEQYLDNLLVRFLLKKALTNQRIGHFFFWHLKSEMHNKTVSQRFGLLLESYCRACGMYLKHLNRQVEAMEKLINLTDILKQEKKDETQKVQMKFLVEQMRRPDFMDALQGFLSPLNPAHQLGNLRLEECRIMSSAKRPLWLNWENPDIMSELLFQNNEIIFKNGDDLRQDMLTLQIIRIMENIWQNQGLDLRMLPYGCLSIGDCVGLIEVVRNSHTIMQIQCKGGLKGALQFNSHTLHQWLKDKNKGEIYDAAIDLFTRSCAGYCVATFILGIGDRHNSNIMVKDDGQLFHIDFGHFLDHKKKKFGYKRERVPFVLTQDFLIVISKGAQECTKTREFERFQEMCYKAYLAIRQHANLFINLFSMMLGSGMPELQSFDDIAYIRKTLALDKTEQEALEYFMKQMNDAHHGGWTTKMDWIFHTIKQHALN
- protocol description: Inhibition of PI3Kalpha-induced PIP-2 phosphorylation (filter-binding assay)
- test settings: 33P-ATP, p85alpha/His-p110alpha, read-out: IC50 PI3Kα
Note: every record was labeled by where its IC50 sits among small value (below 0.6 nM), mid value (0.6 nM to below 2 nM), large value (2 nM or more)

# count of solved cases: 5
                                     smiles  class_label
0  Cc1ncc(C#Cc2c(C)ncnc2N2CCOCC2)cc1NS(=O)(=O)c1ccccc1Cl    mid value
1  CC(=O)N1CCCN(c2ncnc(C)c2C#Cc2cnc(C)c(NS(=O)(=O)c3ccccc3)c2)CC1  large value
2  Cc1ncc(C#Cc2c(C)ncnc2N2CCOCC2)cc1NS(=O)(=O)C1CCCCC1  large value
3  CCc1ncnc(N(C)C)c1C#Cc1cnc(C)c(NS(C)(=O)=O)c1  large value
4  Cc1ncc(C#Cc2c(C)ncnc2N2CCOCC2)cc1NS(=O)(=O)c1cccc(F)c1    mid value

Entry CCc1ncnc(N2CCOCC2)c1C#Cc1cnc(OC)c(NS(=O)(=O)c2ccco2)c1 belongs to which category?
small value

Entry Cc1ncc(C#Cc2c(C)ncnc2N2CCOCC2)cc1NS(=O)(=O)c1ccnn1C belongs to which category?
small value

Entry COCCS(=O)(=O)Nc1cc(C#Cc2c(C)ncnc2N2CCOCC2)cnc1C belongs to which category?
large value

Entry CCc1ncnc(N2CCN(C(C)=O)CC2)c1C#Cc1cnc(C)c(NS(=O)(=O)c2ccc(F)cc2)c1 belongs to which category?
small value

Entry Cc1ncc(C#Cc2c(C)ncnc2N2CCOCC2)cc1NS(=O)(=O)c1cccs1 belongs to which category?
mid value

Entry Cc1ncc(C#Cc2c(C)ncnc2N2CCOCC2)cc1NS(=O)(=O)c1ccccc1 belongs to which category?
small value

Entry CCc1nc(N)nc(N2CCC(O)CC2)c1C#Cc1cnc(C)c(NS(C)(=O)=O)c1 belongs to which category?
large value

Entry COc1ncc(C#Cc2c(C)ncnc2N2CCOCC2)cc1NS(=O)(=O)c1ccc(Cl)s1 belongs to which category?
small value

Entry Cc1ncnc(N2CCOCC2)c1C#Cc1cncc(NS(=O)(=O)c2ccccc2)c1 belongs to which category?
small value

Entry Cc1ncnc(N2CCOCC2)c1C#Cc1cncc(NS(=O)(=O)c2ccc(F)cc2F)c1 belongs to which category?
small value

Entry Cc1ncc(C#Cc2c(C)ncnc2N2CCOCC2)cc1NS(=O)(=O)c1cnoc1C belongs to which category?
large value

Entry CCc1ncnc(N2CCN(S(C)(=O)=O)CC2)c1C#Cc1cnc(C)c(NS(=O)(=O)c2ccc(F)cc2)c1 belongs to which category?
small value

Entry CCc1ncnc(N2CCN(C)CC2)c1C#Cc1cnc(C)c(NS(=O)(=O)c2ccc(F)cc2)c1 belongs to which category?
mid value

Entry Cc1ccccc1S(=O)(=O)Nc1cc(C#Cc2c(C)ncnc2N2CCOCC2)cnc1C belongs to which category?
mid value
